Target: T1, human TIM-3 protein on human PBMC (human, UniProt Q8TDQ0 22-301)
T1 sequence: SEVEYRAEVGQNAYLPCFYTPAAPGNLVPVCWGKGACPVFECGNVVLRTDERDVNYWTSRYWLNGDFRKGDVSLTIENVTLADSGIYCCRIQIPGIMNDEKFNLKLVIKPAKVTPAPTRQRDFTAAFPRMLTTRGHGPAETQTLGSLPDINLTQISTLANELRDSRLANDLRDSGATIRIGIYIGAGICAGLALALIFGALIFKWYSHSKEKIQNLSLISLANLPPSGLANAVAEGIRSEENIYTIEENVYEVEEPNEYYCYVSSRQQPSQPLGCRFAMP
Assay: cell-based or functional assay
Readings of IFN-γ production, lymphocyte activation assay (donor Y), antibody 0.1 µg/ml, N = 1 for the listed binders
Write the value in pg/mL as a bare number.

binder="fully human TIM-3 antibody 18D2H2 (antibody, human IgG4, V domains shown, also called antibody number 2) VH: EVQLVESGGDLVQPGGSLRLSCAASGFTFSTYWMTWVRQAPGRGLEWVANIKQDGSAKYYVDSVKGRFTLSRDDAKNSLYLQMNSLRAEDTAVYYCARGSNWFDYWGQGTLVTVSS VL: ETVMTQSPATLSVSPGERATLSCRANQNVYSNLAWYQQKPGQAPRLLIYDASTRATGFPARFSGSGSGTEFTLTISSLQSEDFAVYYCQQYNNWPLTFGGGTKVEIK" valueunits=pg/mL measured=2540

[Q] Fill in reported IFN-γ production, lymphocyte activation assay (donor Y), antibody 0.1 µg/ml, N = 1 for this entry: fully human TIM-3 antibody 7A4F10 (antibody, human IgG4, V domains shown, also called antibody number 1) VH: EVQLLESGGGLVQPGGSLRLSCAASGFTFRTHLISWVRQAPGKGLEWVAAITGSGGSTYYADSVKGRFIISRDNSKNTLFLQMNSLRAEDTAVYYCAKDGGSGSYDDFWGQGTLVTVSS VL: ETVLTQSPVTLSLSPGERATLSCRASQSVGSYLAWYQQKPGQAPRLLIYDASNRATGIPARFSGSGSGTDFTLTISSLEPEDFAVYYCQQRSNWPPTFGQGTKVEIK
[A] 3150

[Q] Fill in reported IFN-γ production, lymphocyte activation assay (donor Y), antibody 0.1 µg/ml, N = 1 for this entry: fully human TIM-3 antibody 34B6D8 (antibody, human IgG4, V domains shown, also called antibody number 5) VH: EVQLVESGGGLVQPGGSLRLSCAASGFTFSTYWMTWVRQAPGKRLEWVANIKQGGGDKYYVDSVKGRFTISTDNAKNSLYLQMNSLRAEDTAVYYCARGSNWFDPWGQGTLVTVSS VL: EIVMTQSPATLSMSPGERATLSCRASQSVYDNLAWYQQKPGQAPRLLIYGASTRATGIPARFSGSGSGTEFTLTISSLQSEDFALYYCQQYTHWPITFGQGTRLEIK
[A] 2890
